Let's look at some compounds and their measured viability, T/C.
- System: 695427-040-R-J1-PDC complex spheroids, viability percent T/C
- test: Anticancer human tumor 695427-040-R-J1-PDC patient-derived colon adenocarcinoma cell line growth inhibition [GQUAD]
- condition_details: second compound 0.0316 µM; first compound 0.0316 µM; active compounds read low
Respond numerically; units are % and should not be typed.

Use these answered entries as a reference point.
[[record]]
compound = "O=C(NO)c1cnc(N2CCN(S(=O)(=O)c3ccc4ccccc4c3)CC2)nc1 + Cc1[nH]c2ccc(F)cc2c1-c1nc2c3cccnc3c3ncccc3c2[nH]1"
target_entity = "695427-040-R-J1-PDC complex spheroids, viability percent T/C"
measured_quantity = "viability, T/C"
units_text = "%"
endpoint_value = 90.4

[[record]]
compound = "Cc1cccc(N(C)C(=O)C2C(O)CCN2c2nc(C)cc(C(F)(F)F)c2C#N)c1 (stereo not drawn) + CN(C)c1ccc(Nc2c3ccc(NC(=O)CCN4CCCC4)cc3nc3cc(NC(=O)CCN4CCCC4)ccc23)cc1"
target_entity = "695427-040-R-J1-PDC complex spheroids, viability percent T/C"
measured_quantity = "viability, T/C"
units_text = "%"
endpoint_value = 111


Moving on to another compound below.
[ask] Output viability, T/C of CCCS(=O)(=O)Nc1ccc(F)c(C(=O)c2c[nH]c3ncc(-c4ccc(Cl)cc4)cc23)c1F + Cc1[nH]c2ccc(F)cc2c1-c1nc2c3cccnc3c3ncccc3c2[nH]1
[reply] 97.4

---

- System: 695427-040-R-J1-PDC complex spheroids, viability percent T/C
- test: Anticancer human tumor 695427-040-R-J1-PDC cell line growth inhibition [GQUAD];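 note: spheroids exposed to compounds for seven days before readout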
- condition_details: second compound 3.16 µM; first compound 0.00316 µM; active compounds read low
measured_quantity: viability, T/C (%)
Respond numerically; units are % and should not be typed.

Use these answered entries as a reference point.
[[record]]
molecule = "Cc1[nH]c2ccccc2c1CCNCc1ccc(/C=C/C(=O)NO)cc1 + Cc1cnc(CNC(=O)c2c(=O)c3ccc(N4CCCN(C)CC4)nc3n3c2sc2ccccc23)cn1"
measured_quantity = "viability, T/C"
endpoint_value = 51.4

[[record]]
molecule = "CC[C@@]1(O)C(=O)OCc2c1cc1n(c2=O)Cc2cc3c(CN(C)C)c(O)ccc3nc2-1 + CN(C)c1ccc(Nc2c3ccc(NC(=O)CCN4CCCC4)cc3nc3cc(NC(=O)CCN4CCCC4)ccc23)cc1"
measured_quantity = "viability, T/C"
endpoint_value = 100

[[record]]
molecule = "Cn1ncnc1[C@H]1c2n[nH]c(=O)c3cc(F)cc(c23)N[C@@H]1c1ccc(F)cc1 + Cc1[nH]c2ccc(F)cc2c1-c1nc2c3cccnc3c3ncccc3c2[nH]1"
measured_quantity = "viability, T/C"
endpoint_value = 87

[[record]]
molecule = "CCc1c2c(nc3ccc(O)cc13)-c1cc3c(c(=O)n1C2)COC(=O)[C@]3(O)CC + CN(C)c1ccc(Nc2c3ccc(NC(=O)CCN4CCCC4)cc3nc3cc(NC(=O)CCN4CCCC4)ccc23)cc1"
measured_quantity = "viability, T/C"
endpoint_value = 97.8

[[record]]
molecule = "CC[C@@]1(O)C(=O)OCc2c1cc1n(c2=O)Cc2cc3c(CN(C)C)c(O)ccc3nc2-1 + Cc1cnc(CNC(=O)c2c(=O)c3ccc(N4CCCN(C)CC4)nc3n3c2sc2ccccc23)cn1"
measured_quantity = "viability, T/C"
endpoint_value = 56.8

[[record]]
molecule = "CC[C@@]1(O)C(=O)OCc2c1cc1n(c2=O)Cc2cc3c(CN(C)C)c(O)ccc3nc2-1 + Cc1[nH]c2ccc(F)cc2c1-c1nc2c3cccnc3c3ncccc3c2[nH]1"
measured_quantity = "viability, T/C"
endpoint_value = 82.9


Moving on to another molecule below.
[ask] Output viability, T/C of CCc1c2c(nc3ccc(O)cc13)-c1cc3c(c(=O)n1C2)COC(=O)[C@]3(O)CC + Cc1[nH]c2ccc(F)cc2c1-c1nc2c3cccnc3c3ncccc3c2[nH]1
[reply] 74.5

---

- Tested on: 695427-040-R-J1-PDC complex spheroids, viability percent T/C
- test: Anticancer human tumor 695427-040-R-J1-PDC cell line growth inhibition [GQUAD]; active means viability on the fitted dose curve at most 10% of control; inactive means the rest;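 note: spheroids exposed to compounds for seven days before readout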
- condition_details: second compound 0.0316 µM; first compound 3.16 µM
- Source text: DNA G-quadruplex Stabilizer Agents in Combinations in Complex Spheroids A high-throughput screen of multi-cell type tumor spheroids was designed to identify active combinations of DNA G-quadruplex stabilizer agents and targeted small molecules. […] Compounds. […] If the clinical Cmax for an agent had not been determined, the highest concentration tested was 10 microM. […]
Hello, when you answer, please use one of the following outcomes: active, inactive

[[record]]
compound = "O=C(NO)c1cnc(N2CCN(S(=O)(=O)c3ccc4ccccc4c3)CC2)nc1 + Cc1[nH]c2ccc(F)cc2c1-c1nc2c3cccnc3c3ncccc3c2[nH]1"
label_value = "inactive"

[[record]]
compound = "CCCS(=O)(=O)Nc1ccc(F)c(C(=O)c2c[nH]c3ncc(-c4ccc(Cl)cc4)cc23)c1F + CN(C)c1ccc(Nc2c3ccc(NC(=O)CCN4CCCC4)cc3nc3cc(NC(=O)CCN4CCCC4)ccc23)cc1"
label_value = "inactive"

[[record]]
compound = "O=C(NO)c1cnc(N2CCN(S(=O)(=O)c3ccc4ccccc4c3)CC2)nc1 + Cc1cnc(CNC(=O)c2c(=O)c3ccc(N4CCCN(C)CC4)nc3n3c2sc2ccccc23)cn1"
label_value = "active"


[ask] Called result for CC1COCCN1c1cc(C2(S(C)(=N)=O)CC2)nc(-c2ccnc3[nH]ccc23)n1 (stereo not given) + CN(C)c1ccc(Nc2c3ccc(NC(=O)CCN4CCCC4)cc3nc3cc(NC(=O)CCN4CCCC4)ccc23)cc1
[reply] inactive

[ask] Called result for COc1cc(C2c3cc4c(cc3C(OC3OC5COC(C)OC5C(O)C3O)C3COC(=O)C23)OCO4)cc(OC)c1O (stereo not given) + Cc1[nH]c2ccc(F)cc2c1-c1nc2c3cccnc3c3ncccc3c2[nH]1
[reply] inactive

---

- System: 695427-040-R-J1-PDC complex spheroids, viability percent T/C
- test: Anticancer human tumor 695427-040-R-J1-PDC cell line growth inhibition [GQUAD];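 note: spheroids exposed to compounds for seven days before readout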
- condition_details: second compound 0.1 µM; first compound 0.316 µM; active compounds read low
Binarize viability, T/C at 90%; below is yes (1), at or above is no (0).

[[record]]
molecule = "CC1COCCN1c1cc(C2(O)CC3CCC(C2)O3)c2cnn(-c3ccn[nH]3)c2n1 (centres undefined) + Cc1[nH]c2ccc(F)cc2c1-c1nc2c3cccnc3c3ncccc3c2[nH]1"
target_entity = "695427-040-R-J1-PDC complex spheroids, viability percent T/C"
label_value = "yes (1)"

[[record]]
molecule = "CC1COCCN1c1cc(C2(S(C)(=N)=O)CC2)nc(-c2ccnc3[nH]ccc23)n1 (centres undefined) + CN(C)c1ccc(Nc2c3ccc(NC(=O)CCN4CCCC4)cc3nc3cc(NC(=O)CCN4CCCC4)ccc23)cc1"
target_entity = "695427-040-R-J1-PDC complex spheroids, viability percent T/C"
label_value = "no (0)"

[[record]]
molecule = "Cn1ncnc1[C@H]1c2n[nH]c(=O)c3cc(F)cc(c23)N[C@@H]1c1ccc(F)cc1 + CN(C)c1ccc(Nc2c3ccc(NC(=O)CCN4CCCC4)cc3nc3cc(NC(=O)CCN4CCCC4)ccc23)cc1"
target_entity = "695427-040-R-J1-PDC complex spheroids, viability percent T/C"
label_value = "no (0)"


[ask] Dear colleague, could you confirm whether viability, T/C of Cn1ncnc1[C@H]1c2n[nH]c(=O)c3cc(F)cc(c23)N[C@@H]1c1ccc(F)cc1 + Cc1[nH]c2ccc(F)cc2c1-c1nc2c3cccnc3c3ncccc3c2[nH]1 falls below 90%? Thanks.
[reply] yes (1)

[ask] Dear colleague, could you confirm whether viability, T/C of Cc1cccc(N(C)C(=O)C2C(O)CCN2c2nc(C)cc(C(F)(F)F)c2C#N)c1 (centres undefined) + CN(C)c1ccc(Nc2c3ccc(NC(=O)CCN4CCCC4)cc3nc3cc(NC(=O)CCN4CCCC4)ccc23)cc1 falls below 90%? Thanks.
[reply] no (0)

---

- Test system: 695427-040-R-J1-PDC complex spheroids, viability percent T/C
- test: Anticancer human tumor 695427-040-R-J1-PDC cell line growth inhibition [GQUAD];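 note: spheroids exposed to compounds for seven days before readout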
- condition_details: second compound 0.316 µM; first compound 1 µM; active compounds read low
measured_quantity: viability, T/C

[[record]]
compound = "CC(C)n1c(=O)n(C)c2cnc3cc(F)c(-c4ccc(OCCCN5CCCCC5)nc4)cc3c21 + Cc1[nH]c2ccc(F)cc2c1-c1nc2c3cccnc3c3ncccc3c2[nH]1"
target_entity = "695427-040-R-J1-PDC complex spheroids, viability percent T/C"
endpoint_value = "98.7%"


[ask] Output viability, T/C of CC1COCCN1c1cc(C2(O)CC3CCC(C2)O3)c2cnn(-c3ccn[nH]3)c2n1 (stereo unspecified) + Cc1[nH]c2ccc(F)cc2c1-c1nc2c3cccnc3c3ncccc3c2[nH]1
[reply] 41.7%

[ask] Output viability, T/C of CC1COCCN1c1cc(-c2ccnn2C)c2ccnc(-c3ccn[nH]3)c2n1 (stereo unspecified) + Cc1cnc(CNC(=O)c2c(=O)c3ccc(N4CCCN(C)CC4)nc3n3c2sc2ccccc23)cn1
[reply] 28%

[ask] Output viability, T/C of Cc1cccc(N(C)C(=O)C2C(O)CCN2c2nc(C)cc(C(F)(F)F)c2C#N)c1 (stereo unspecified) + Cc1[nH]c2ccc(F)cc2c1-c1nc2c3cccnc3c3ncccc3c2[nH]1
[reply] 76.9%

[ask] Output viability, T/C of C=CC(=O)N1CCN(c2nc(=O)n(-c3c(C)ccnc3C(C)C)c3nc(-c4c(O)cccc4F)c(F)cc23)C(C)C1 (stereo unspecified) + CN(C)c1ccc(Nc2c3ccc(NC(=O)CCN4CCCC4)cc3nc3cc(NC(=O)CCN4CCCC4)ccc23)cc1
[reply] 102%

[ask] Output viability, T/C of COc1cc(C2c3cc4c(cc3C(OC3OC5COC(C)OC5C(O)C3O)C3COC(=O)C23)OCO4)cc(OC)c1O (stereo unspecified) + Cc1[nH]c2ccc(F)cc2c1-c1nc2c3cccnc3c3ncccc3c2[nH]1
[reply] 87.3%
